# Tested on: M14 melanoma
# experiment.notes: NCI-60 one-dose screen, 48 h (100 = growth as untreated, 0 = no growth, -100 = all killed)
# stated.conditions: 10 µM
# Description: Growth inhibition of the M14 human tumor cell line is measured as a screen for anti-cancer activity. Cells are grown in 96 well plates and exposed to the test compound for 48 hours. Compounds are tested at a single concentration, which is 10^-5 M for most compounds. The reported endpoint is percent growth (GI% or GIPRCNT), where numbers from 0 - 100% represent growth inhibition, and numbers from -100% - 0 represent cell death. For example, a value of 40 represents 60% growth inhibition. […]
About 83,000 compounds went through this panel and 20% of them were active in at least one assay; those are over-represented in the sample as a whole.
Field: growth. Provide a value for each of the compounds that follow.
Your answer is read as %, so omit the unit and give the number.

Need growth, item "CN(CCF)c1ccc(/C=C/C(=O)c2ccc(N)cc2O)cc1"
107

Need growth, item "CN1CCN(c2ccc(Nc3nc(NCCCNC(=O)c4ccc(Cl)cc4)c4sccc4n3)cc2)CC1"
68.6

Need growth, item "COc1ccc(CN2[C@H](C(=O)NCCCCCCC(=O)NO)Cc3c([nH]c4ccccc34)[C@H]2C2CC2)cc1"
17.6

Need growth, item "COc1ccc(Nc2nc(N)n(Cc3cccc(Br)c3)n2)cc1"
0.65

Need growth, item "COc1ccc2[nH]cc(/C=N/Nc3ccc(Br)cn3)c2c1"
8.66

Need growth, item "O=C(CSc1nnc(-c2c[nH]c3ccccc23)n1-c1ccccc1)Nc1ccc(C(=O)/C=C/c2ccc(Br)cc2)cc1"
102

Need growth, item "Cc1nn(-c2ccccc2)c2ncn(CC(=O)N/N=C/c3c[nH]c4ccccc34)c(=O)c12"
92.3

Need growth, item "CC1=N/C(=C\c2ccc(N(C)C)cc2)C(=O)N1CCc1ccc(S(N)(=O)=O)cc1"
97.3

Need growth, item "Cc1cc(C)cc(Oc2cccc(-c3c(C)nnn3C3CCN(CCN(C)C)CC3)n2)c1"
7.14

Need growth, item "CC(=O)c1ccc(NC(=O)NCn2c(=O)[nH]c3ccccc3c2=O)cc1"
110

Need growth, item "O=C(CNc1nc(-c2ccccc2)cs1)Nc1ccccc1"
-73.8

Need growth, item "Cc1ccc2nc(-c3ccc(-c4nnc(SCC(=O)Nc5ccc(Cl)cc5)o4)cc3)[nH]c2c1"
53.6

Need growth, item COc1ccc(N2N=C(c3ccc4c(c3)OCCO4)CC2c2cccc(NC(=O)CCCNS(=O)(=O)c3ccc(F)cc3)c2)cc1 (stereo not drawn)
81.9

Need growth, item "CN1CCCN(Cc2ccc(C(=O)Nc3cccc(Nc4ccc5c(O)cccc5n4)c3)cc2C(F)(F)F)CC1"
-84.7

Need growth, item "COC(=O)C[C@](O)(CCCC(C)(C)O)C(=O)O[C@H]1C(OC)=C[C@@]23CCC(=O)N2CCc2cc4c(cc2[C@@H]13)OCO4"
102

Need growth, item "CC1(C)CC[C@]23CC[C@]4(C)[C@H](CC[C@@H]5[C@@]6(C)CC[C@H](N)C(C)(C)[C@@H]6CC[C@]54C)[C@H]2[C@H]1OC3=O"
-77.6

Need growth, item "CCN1CCN(c2ccc(NC(=O)Nc3ccc4c(c3F)CCN4c3ccnc(C(=O)NC)c3)cc2C(F)(F)F)CC1"
-92.6

Need growth, item "N#C/C(=C\c1ccc(N(c2ccccc2)c2ccccc2)cc1)C(N)=O"
90.7

Need growth, item "OCCCNc1oc(-c2ccccc2)nc1[P+](c1ccccc1)(c1ccccc1)c1ccccc1"
10.1

Need growth, item "COc1ccc2nc(Nc3cccc(NC(=O)c4ccc(CN5CCN(C)CC5)c(C(F)(F)F)c4)c3)ccc2c1"
-50.1

Need growth, item "O=C1Nc2cc(Cl)ccc2/C1=C/c1ccc(OCc2ccc(Br)cc2F)cc1"
-45.1

Need growth, item COc1cc2c(c(OC)c1OC)C(=O)CC(c1cccc(NC(=O)c3cccc(N)c3)c1)O2 (stereo not drawn)
96.5

Need growth, item "CCCCCc1ccc(S(=O)(=O)Nc2cc(-c3csc(N(C)C(C)=O)n3)ccc2N2CCN(C)CC2)cc1"
28.3

Need growth, item "O=C(CSc1nnc(-c2ccc3nc(-c4ccc(Cl)cc4)[nH]c3c2)o1)Nc1ccc(Br)cc1"
-84.4

Need growth, item "O=C1Nc2ccc(F)cc2/C1=C/c1cccc(OCc2ccccn2)c1"
36.3

Need growth, item COc1ccc(C2NC(=S)NC(C)=C2C(=O)OC(C)C)cc1OC (stereo not drawn)
105

Need growth, item "CCOc1ccc(/C=N/NC(=O)Cn2nc(Cc3ccc([N+](=O)[O-])cc3)c3onc(C)c3c2=O)cc1"
50.9

Need growth, item "Cc1ccc(-c2cc(C(=O)N=Nc3c(O)[nH]c4ccccc34)c3ccccc3n2)cc1"
70.5
